- system under test: T1, mouse PD-L1 (soluble protein of the kinetic measurements) (mouse, UniProt Q9EP73 19-238, limits assumed)
- T1 construct: kept apart from the His-tag protein of the ELISA; also called mPD-L1
- T1 sequence (Q9EP73 19-238 limits assumed): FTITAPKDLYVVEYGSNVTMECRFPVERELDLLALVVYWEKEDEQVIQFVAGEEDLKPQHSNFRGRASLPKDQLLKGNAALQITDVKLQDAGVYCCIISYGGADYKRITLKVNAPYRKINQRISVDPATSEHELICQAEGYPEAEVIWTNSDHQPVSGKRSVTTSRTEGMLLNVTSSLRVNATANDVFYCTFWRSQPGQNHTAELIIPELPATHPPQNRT
- assay: BLI (Octet), antibody fixed on biosensor, PD-L1 in solution
koff overview
Hi! Could you send only the number? It should be in s⁻¹, unit omitted.

Record ME4.A11 anti-PD-L1 antibody (IgG form) (antibody, V domains shown) VH: QVQLVESGAEVKKPGSSVKVSCKASGGTFNNYAVSWVRQAPGQGLEWMGRIIPILGIANYAQTFQGRVTITADKSTTTAYMELSSLRSEDTAVYYCARSRGGYAHGAFDIWGQGTMVTVSS VL: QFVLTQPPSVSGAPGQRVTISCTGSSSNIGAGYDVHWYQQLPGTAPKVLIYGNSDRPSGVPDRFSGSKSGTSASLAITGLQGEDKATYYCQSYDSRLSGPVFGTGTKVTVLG . Reported koff: 0.000626

Note to self: koff recorded for ME4.A2 anti-PD-L1 antibody (IgG form) (antibody, V domains shown) VH: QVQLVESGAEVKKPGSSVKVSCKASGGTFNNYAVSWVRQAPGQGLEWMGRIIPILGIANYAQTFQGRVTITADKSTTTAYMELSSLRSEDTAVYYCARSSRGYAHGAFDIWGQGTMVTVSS VL: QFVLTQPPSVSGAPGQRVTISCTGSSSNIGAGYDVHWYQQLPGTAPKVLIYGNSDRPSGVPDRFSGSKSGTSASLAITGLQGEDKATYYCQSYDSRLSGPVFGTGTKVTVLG was 0.000986

Per the records, this binder ( ME4 anti-PD-L1 antibody (IgG form) (antibody, V domains shown, Converted to IgG with the vectors pIgGHD-6A6Hvy and pIgGLD-6A6Lgt; Expressed in Expi293F cells) VH: QVQLVESGAEVKKPGSSVKVSCKASGGTFNNYAVSWVRQAPGQGLEWMGRIIPILGIANYAQTFQGRVTITADKSTTTAYMELSSLRSEDTAVYYCARSYSGYAEGAFDIWGQGTMVTVSS VL: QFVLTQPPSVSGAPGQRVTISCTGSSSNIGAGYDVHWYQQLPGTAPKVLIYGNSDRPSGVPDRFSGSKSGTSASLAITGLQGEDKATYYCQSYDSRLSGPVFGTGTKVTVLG ) has koff equal to 0.00211
